Each recorded value in this set is attributed to the supplement of paper PMC10567573.

B1: MYBL2 (parent)
chain: FSPSQFLNFWNKQDTLELESPSLT

Variants of: B1
protocolDescription: protein stability index of a GFP-peptide fusion (GPS, HEK-293T) (PSI 1-6); higher = more stable;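 further: lentivirally expressed fusions sorted by FACS into six bins by GFP to DsRed ratio, PSI derived from sequencing read proportions per bin multiplied by bin number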
appliedConditions: c terminus: a fixed tail appended
measurementLabel: protein stability index
Answers are plain numbers.

Consider the worked cases shown below.
>>> observedvalue("S20C")
2.08
>>> observedvalue("T24W")
2.86
>>> observedvalue("P3V")
1.77
>>> observedvalue("E17Y")
2.41
>>> observedvalue("N8D")
2.08

Kindly give each listed record's protein stability index.
1. L18C
2. E17M
3. S22I
4. L18P
5. S2I
6. E19G

1. 2.55
2. 3.58
3. 2.72
4. 2.1
5. 3.87
6. 1.66

protein stability index recorded for this variant, L23G , is 2.27
